Reported IC50 values for the following binders.
measurement.target: T1, rat nerve growth factor (beta-NGF) (rat, UniProt P25427 122-241)
T1 construct: mature; also called rat NGF; recombinant rat β-NGF
T1 sequence (P25427 122-241): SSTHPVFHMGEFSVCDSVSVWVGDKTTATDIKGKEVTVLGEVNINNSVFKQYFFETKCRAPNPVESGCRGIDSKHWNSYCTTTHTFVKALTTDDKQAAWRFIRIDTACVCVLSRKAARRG
method.notes: purified scFv, inhibition of rat NGF binding to TrkA fusion protein
Express the result in nM but write the number alone.

1146D7 scFv (scFv, V domains shown, also called LOT1146D07) VH: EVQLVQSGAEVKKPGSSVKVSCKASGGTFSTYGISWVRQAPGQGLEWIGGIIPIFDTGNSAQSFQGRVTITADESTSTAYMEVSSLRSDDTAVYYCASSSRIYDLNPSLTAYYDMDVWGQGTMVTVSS VL: QAVLTQPSSVSTPPGQEVTISCSGSSTNIGNNYVSWYQQLPGTAPKLLIYDNNKRPSGIPDRFSGSKSGTSATLGITGLQTGDEADYYCGTWDSSLSAWVFGGGTKLTVL ... 0.02
1134D9 scFv (scFv, V domains shown, also called LOT1134D09) VH: EVQLVQSGAEVKKPGSSVKVSCKASGGTFSTYGISWVRQAPGQGLEWIGGIIPIFDTGNSAQSFQGRVAITADESTSTAYMEVSSLRSDDTAVYYCASSSRIYDLNPSLTAYYDMDVWGQGTMVTVSS VL: QAVLTQPSSVSTPPGQKVTISCSGSSSNIGNNYVSWYQQLPGTAPKLLIYDNNKRPSGIPDRFSGSKSGTSATLGITGLQTGDEADYYCGTWDSGLSAWVFGGGTKLTVL ... 0.2
1132H9 scFv (scFv, V domains shown, also called LOT1132H09) VH: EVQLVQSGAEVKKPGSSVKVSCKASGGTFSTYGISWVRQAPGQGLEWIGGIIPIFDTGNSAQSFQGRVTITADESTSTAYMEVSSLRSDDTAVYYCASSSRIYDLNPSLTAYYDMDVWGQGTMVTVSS VL: QAVLTQPSSVSTPPGQKVTISCSGSSSDIGNNYVSWYQQLPGTAPKLLIYDNNKRPTGIPDRFSGSKSGTSATLGITGLQTGDEADYYCGTWDSSLSAWVFGGGTKLTVL ... 0.68
1160E3 scFv (scFv, V domains shown, also called LOT1160E03) VH: EVQLVQSGAEVKKPGSSAKVSCKASGGTFSTYGISWVRQAPGQGLEWIGGIIPIFDTGNSAQSFQGRVTITADESTSTAYMEVSSLRSDDTAVYYCASSSRIYDLNPSLTAYYDMDVWGQGTMVTVSS VL: QAVLTQPSSVSTPPGQKVTISCSGSNSNIGNNYVSWYQQLPGTAPKLLIYDNNKRPSGIPDRFSGSKSGTSATLGITGLQTGDEADYYCGTWDSSLSAWVFGGGTKLTVL ... 0.22
1133C11 scFv (scFv, V domains shown, also called LOT1133C11) VH: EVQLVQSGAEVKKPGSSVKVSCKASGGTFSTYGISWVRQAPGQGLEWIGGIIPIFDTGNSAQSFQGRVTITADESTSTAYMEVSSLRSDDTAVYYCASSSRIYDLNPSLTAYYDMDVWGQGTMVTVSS VL: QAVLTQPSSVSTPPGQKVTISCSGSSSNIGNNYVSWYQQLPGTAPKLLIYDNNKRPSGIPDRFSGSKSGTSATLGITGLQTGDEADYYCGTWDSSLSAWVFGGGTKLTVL ... 1.24
1218H5 scFv (scFv, V domains shown, also called LOT1218H05) VH: EVQLVQSGAVVKKPGSSVKVSCKASGGTFSTYGISWVRQAPGQGLEWIGGIIPIFDTGSSAQSFQGRVTITADESTSTAYMEVSSLRSDDTAVYYCASSSRIYDLNPSLTAYYDMDVWGQGTMVTVSS VL: QAVLTQPSSVSTPPGQKVTISCSGSSSNTGNNYVSWYQQLSGTAPKLLIYDNNKRPSGIPDRFSGSKSGTSATLGITGLQTGDEADYYCGTWDSSLSAWVFGGGTKLTVL ... 0.03

Okay, next one:
Q. # get_value(readout='IC50', item= 1021E5 scFv (scFv, part only; not given: Linker and tags, V domains shown, not shown: another chain or arm of the molecule; small tags and cut ends) VH: EVQLVQSGAEVKKPGSSVKVSCKASGGTFSTYGISWVRQAPGQGLEWIGGIIPIFDTGNSAQSFQGRVTITADESTSTAYMEVSSLRSDDTAVYYCASSSRIYDYAGGDHYYYDMDVWGQGTMVTVSS VL: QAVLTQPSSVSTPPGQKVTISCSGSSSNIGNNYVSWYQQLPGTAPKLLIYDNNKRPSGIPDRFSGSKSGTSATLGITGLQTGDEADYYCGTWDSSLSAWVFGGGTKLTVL )
A. 269
